Experiment: in vitro
Format: in vitro ADME, mice
Conditions: Crl:CD-1 (ICR), mouse, pH 7.4; murine serum, equilibrium dialysis, 37° C., 5 to 6 hours; read-out: Protein binding rate (converted)
Counter-ions that a name gives are not always drawn.
Returns 1.0 if the recorded fraction unbound is greater than or equal to 0.02, and 0.0 otherwise.

Observe how each entry below is paired with its result.
molecule	category label
CC[C@]1(c2cc(NS(=O)(=O)C3CC3)ccc2F)[C@@H]2CN(CCCN3CCC(F)(F)CC3)C[C@@H]21 [Example 15-(b), hydrochloride]	1.0
CC[C@]1(c2cccc(NS(=O)(=O)C3CC3)c2)[C@@H]2CN(CCCC3CCC(F)(F)CC3)C[C@@H]21 [Example 4-(b), hydrochloride]	0.0
CC[C@]1(c2cccc(NS(=O)(=O)C3CC3)c2)[C@@H]2CN(CCCN3CCCC(F)(F)C3)C[C@@H]21 [Example 16-(b), hydrochloride]	1.0
CC[C@]1(c2cccc(NS(=O)(=O)C3CC3)c2)[C@@H]2CN(CC3(O)Cc4cc(F)c(F)cc4C3)C[C@@H]21 [Example 20-(a)]	0.0

Check the entry CC[C@]1(c2cc(NS(=O)(=O)C3CC3)ccc2F)[C@@H]2CN(CCCN3CCC(F)(F)C3)C[C@@H]21 [Example 9-(b), hydrochloride] : does fraction unbound equal or exceed 0.02?
1.0

Can you check CC[C@]1(c2cc(NS(=O)(=O)C3CC3)ccc2F)[C@@H]2CN(CCCC3CCC(F)(F)CC3)C[C@@H]21 [Example 5-(b), hydrochloride] next?
0.0

====

Listed here are compounds together with their documented Safety margin.
Target: hERG (Homo sapiens (Human), UniProt Q12809)
Assay: Safety margin against hERG inhibitory activity
Conditions: hERG IC50×1000/{concentration in plasma at ED50×(1−protein binding rate/100)}
Counter-ions that a name gives are not always drawn.
Give the value as a plain number.

compound	Safety margin
CC[C@]1(c2cc(F)cc(NS(=O)(=O)C3CC3)c2)[C@@H]2CN(CC3(O)Cc4ccccc4C3)C[C@@H]21 [Example 10-(b), hydrochloride]	5

Notebook: pull reported Safety margin for hERG (Homo sapiens (Human), UniProt Q12809), entry C[C@]1(c2cccc(NS(=O)(=O)C3CC3)c2)[C@@H]2CN(CC3(O)Cc4ccccc4C3)C[C@@H]21 [Example 17-(b), hydrochloride]
48

Also need CC[C@]1(c2cccc(NS(=O)(=O)C3CC3)c2)[C@@H]2CN(CCCN3CCC(F)(F)CC3)C[C@@H]21 [Example 7-(b), hydrochloride] , thanks.
375

What about CC[C@]1(c2cc(NS(=O)(=O)C3CC3)ccc2F)[C@@H]2CN(CCCN3CCC(F)(F)CC3)C[C@@H]21 [Example 15-(b), hydrochloride] ?
182

====

Assay: Plasma concentration of test substance at ED50 value (mice, LC/MS/MS)
Assay type: in vivo
Conditions: at the ED50 value, at time of morphine administration, oral, linear regression from two doses
Where a name gives a salt, the structure may show the parent alone.
Readings of Plasma concentration of test substance for the listed molecules

molecule	value kind	result
C[C@]1(c2cccc(NS(=O)(=O)C3CC3)c2)[C@@H]2CN(CC3(O)Cc4ccccc4C3)C[C@@H]21 [Example 17-(b), hydrochloride]	Plasma concentration of test substance	68.2 nM
CCOC1(CN2C[C@@H]3[C@H](C2)[C@@]3(CC)c2cccc(NS(=O)(=O)C3CC3)c2)Cc2ccccc2C1 [Example 13-(b), hydrochloride]	Plasma concentration of test substance	71.9 nM

Turning now to a further record.
// returns reported Plasma concentration of test substance for input CC[C@]1(c2cc(NS(=O)(=O)C3CC3)ccc2F)[C@@H]2CN(CCCN3CCC(F)(F)CC3)C[C@@H]21 [Example 15-(b), hydrochloride]
71.5 nM

Where do these numbers come from? They come from patent US9663463B2.
